tested on: Septoria tritici—SEPTTR; test: Leaf Blotch of Wheat, in vivo whole plant, 24 Hour Protectant; conditions: Zymoseptoria tritici, 24 h, 100 ppm spray, 24 hour protectant, wheat; control of fungal infection vs untreated plants; read-out: SEPTTR in vivo 1 Day Protectant
observable: pest or weed control at 100 ppm

QUERY: Report measured pest or weed control at 100 ppm; entry is COc1ccnc(C(=O)NC2CC3OC2C(C)C(OC(=O)C(C)C)C3C)c1O (stereo not drawn)
RESULT: 25 to 74%

QUERY: Tell me pest or weed control at 100 ppm reported for COc1ccnc(C(=O)NC2CC(C)(C)C(OC(=O)c3cccc(Cl)n3)C(C)(C)C2)c1O (stereo not drawn)
RESULT: 25 to 74%

QUERY: Give pest or weed control at 100 ppm for Cc1cccc(CNC(=O)c2ncccc2O)c1
RESULT: < 25%

QUERY: Name the recorded pest or weed control at 100 ppm of the compound listed here: COc1ccnc(C(=O)NC2C[C@H](C)O[C@@](C)(Cc3ccccc3)C2)c1O (stereo partly drawn)
RESULT: 25 to 74%

QUERY: Check the records and state pest or weed control at 100 ppm for COc1ccnc(C(=O)NC2C[C@H](C)O[C@](C)(Cc3ccccc3)C2)c1O (stereo partly drawn)
RESULT: 25 to 74%

QUERY: Kindly indicate its recorded pest or weed control at 100 ppm. Item: COc1ccnc(C(=O)NC2C3CSC2CN(Cc2ccccc2)C3)c1O (stereo not drawn)
RESULT: < 25%

QUERY: Report pest or weed control at 100 ppm, nothing else, for this compound: CC1(C)CC(NC(=O)c2ncccc2O)CC(C)(C2CC2)C1 (stereo not drawn)
RESULT: 25 to 74%

QUERY: Tell me pest or weed control at 100 ppm reported for COc1cc(NC(=O)c2ncccc2O)cc(OC)c1
RESULT: < 25%

QUERY: Identify pest or weed control at 100 ppm associated with the compound Cc1ccc(CNC(=O)c2ncccc2O)cc1
RESULT: < 25%

---

observable: melting point

QUERY: Answer with reported melting point of COc1cccc(CNC(=O)c2ncccc2O)c1OC
RESULT: 78 to 79 °C

QUERY: Report measured melting point; entry is COc1ccnc(C(=O)N[C@H]2COC(=O)[C@H](Cc3ccccc3)[C@@H](OC(=O)C(C)(C)C)[C@H](C)OC2=O)c1O
RESULT: 212 to 214 °C

QUERY: Input O=C(NCCc1ccc(Cl)cc1)c1cccnc1O , output reported melting point.
RESULT: 219 to 221 °C

QUERY: Quick one: give measured melting point for CC1(C)CC(NC(=O)c2cscc2O)CC(C)(C)C1
RESULT: 170 to 174 °C

QUERY: Note down melting point recorded for COc1ccnc(C(=O)Nc2ccc(Oc3ccc(C(F)(F)F)cc3)cn2)c1O
RESULT: 173 to 175 °C

QUERY: Dear colleague, please send me the reported melting point for COc1ccnc(C(=O)N[C@@H]2CC(C)(C)C[C@](C)(C(=O)N(C)CCc3ccccc3)C2)c1O when you can.
RESULT: 59 to 60 °C

QUERY: Please list melting point recorded for the compound COc1ccnc(C(=O)Nc2ccc(C(=O)Oc3cccc(C(F)(F)F)c3)cc2)c1OC(C)=O
RESULT: 166 to 169 °C

QUERY: Annotate the compound CC1(C)CC(NC(=O)c2nsnc2O)CC(C)(C)C1 with its measured melting point.
RESULT: 96 to 102 °C
